System under test: cyno MSLN (Macaca fascicularis)
Assay notes: BLI (Octet), bsAb in 1+1 Fab-scFv-Fc format
Label Y when koff is at or above 0.0002 s⁻¹; anything below gets N.

Solved entries (count: 6):
>  <Binder>
XENP32554 (bispecific antibody, part only; not given: anti-CD3 scFv-Fc arm, constant regions, V domains shown, not shown: another chain or arm of the molecule; a dimerising Fc or GST) VH: QVQLVQSGAEVKKPGASVKVSCKASGYTFTSYWMHWVRQAPGQGLEWMGMIHPQSDNTIYYEKFQGRVTMTVDKSISTAYMELSRLRSDDTAVYYCAIIITPVVPKFDYWGQGTLVTVSS VL: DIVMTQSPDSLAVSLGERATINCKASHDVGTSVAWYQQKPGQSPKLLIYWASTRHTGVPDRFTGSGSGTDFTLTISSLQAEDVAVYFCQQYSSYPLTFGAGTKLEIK

>  <Discrete label>
Y

$$$$
>  <Binder>
XENP32560 (bispecific antibody, part only; not given: anti-CD3 scFv-Fc arm, constant regions, V domains shown, not shown: another chain or arm of the molecule; a dimerising Fc or GST; small tags and cut ends) VH: QVQLVQSGAEVKKPGASVKVSCKASGYTFTSYWMHWVRQAPGQGLEWMGMIHPNSDNTIYYEKFQGRVTMTVDKSISTAYMELSRLRSDDTAVYYCAIIITPVVPKFDYWGQGTLVTVSS VL: DIVMTQSPDSLAVSLGERATINCKASQDVGTSVAWYQQKPGQSPKLLIYWASTRHTGVPDRFTGSGSGTDFTLTISSLQAEDVAVYFCQQYSSYPLTFGAGTKLEIK

>  <Discrete label>
Y

$$$$
>  <Binder>
XENP32570 (bispecific antibody, part only; not given: anti-CD3 scFv-Fc arm, constant regions, V domains shown, not shown: another chain or arm of the molecule; a dimerising Fc or GST; small tags and cut ends) VH: QVQLVQSGAEVKKPGASVKVSCKASGYTFTSYWMHWVRQAPGQGLEWMGMIHPNSGNTIYYEKFQGRVTMTVDKSISTAYMELSRLRSDDTAVYYCAIIITPVVPKFDYWGQGTLVTVSS VL: DIVMTQSPDSLAVSLGERATINCKASHSVGTSVAWYQQKPGQSPKLLIYWASTRHTGVPDRFTGSGSGTDFTLTISSLQAEDVAVYFCQQYSSYPLTFGAGTKLEIK

>  <Discrete label>
N

$$$$
>  <Binder>
XENP32551 (bispecific antibody, part only; not given: anti-CD3 scFv-Fc arm, constant regions, V domains shown, not shown: another chain or arm of the molecule; a dimerising Fc or GST; small tags and cut ends) VH: QVQLVQSGAEVKKPGASVKVSCKASGYTFTSYYMHWVRQAPGQGLEWMGMIHPNSDNTIYYEKFQGRVTMTVDKSISTAYMELSRLRSDDTAVYYCAIIITPVVPKFDYWGQGTLVTVSS VL: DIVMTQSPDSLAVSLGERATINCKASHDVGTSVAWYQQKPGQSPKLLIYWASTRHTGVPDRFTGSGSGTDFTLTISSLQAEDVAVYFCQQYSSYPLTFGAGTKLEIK

>  <Discrete label>
Y

$$$$
>  <Binder>
XENP32553 (bispecific antibody, part only; not given: anti-CD3 scFv-Fc arm, constant regions, V domains shown, not shown: another chain or arm of the molecule; a dimerising Fc or GST; small tags and cut ends) VH: QVQLVQSGAEVKKPGASVKVSCKASGYTFTSYWMHWVRQAPGQGLEWMGMINPNSDNTIYYEKFQGRVTMTVDKSISTAYMELSRLRSDDTAVYYCAIIITPVVPKFDYWGQGTLVTVSS VL: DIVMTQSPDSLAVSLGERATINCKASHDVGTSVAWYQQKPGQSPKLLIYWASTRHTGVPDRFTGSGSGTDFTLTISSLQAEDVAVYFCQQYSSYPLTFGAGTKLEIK

>  <Discrete label>
Y

$$$$
>  <Binder>
XENP32556 (bispecific antibody, part only; not given: anti-CD3 scFv-Fc arm, constant regions, V domains shown, not shown: another chain or arm of the molecule; a dimerising Fc or GST; small tags and cut ends) VH: QVQLVQSGAEVKKPGASVKVSCKASGYTFTSYWMHWVRQAPGQGLEWMGMIHPNSDNTIYYEKFQGRVTMTVDKSISTAYMELSRLRSDDTAVYYCARIITPVVPKFDYWGQGTLVTVSS VL: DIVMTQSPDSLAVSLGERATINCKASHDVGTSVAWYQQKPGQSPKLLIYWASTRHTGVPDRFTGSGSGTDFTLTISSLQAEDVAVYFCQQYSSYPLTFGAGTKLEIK

>  <Discrete label>
N

$$$$

Reported koff reaches at least 0.0002 s⁻¹ for XENP32559 (bispecific antibody, part only; not given: anti-CD3 scFv-Fc arm, constant regions, V domains shown, not shown: another chain or arm of the molecule; a dimerising Fc or GST; small tags and cut ends) VH: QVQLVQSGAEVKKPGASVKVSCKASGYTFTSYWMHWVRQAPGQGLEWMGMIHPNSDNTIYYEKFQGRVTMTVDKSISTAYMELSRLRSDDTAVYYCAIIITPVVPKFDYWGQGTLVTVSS VL: DIVMTQSPDSLAVSLGERATINCKSSHDVGTSVAWYQQKPGQSPKLLIYWASTRHTGVPDRFTGSGSGTDFTLTISSLQAEDVAVYFCQQYSSYPLTFGAGTKLEIK ?
N

Given the entry XENP32557 (bispecific antibody, part only; not given: anti-CD3 scFv-Fc arm, constant regions, V domains shown, not shown: another chain or arm of the molecule; a dimerising Fc or GST; small tags and cut ends) VH: QVQLVQSGAEVKKPGASVKVSCKASGYTFTSYWMHWVRQAPGQGLEWMGMIHPNSDNTIYYEKFQGRVTMTVDKSISTAYMELSRLRSDDTAVYYCAIIISPVVPKFDYWGQGTLVTVSS VL: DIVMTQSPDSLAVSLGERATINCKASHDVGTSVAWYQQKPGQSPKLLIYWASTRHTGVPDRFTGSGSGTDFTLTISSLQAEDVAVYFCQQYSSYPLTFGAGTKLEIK , answer whether its koff meets or surpasses 0.0002 s⁻¹.
Y

// inclusive: koff at least 0.0002 s⁻¹? input: XENP32550 (bispecific antibody, part only; not given: anti-CD3 scFv-Fc arm, constant regions, V domains shown, not shown: another chain or arm of the molecule; a dimerising Fc or GST; small tags and cut ends) VH: QVQLVQSGAEVKKPGASVKVSCKASGYTFTGYWMHWVRQAPGQGLEWMGMIHPNSDNTIYYEKFQGRVTMTVDKSISTAYMELSRLRSDDTAVYYCAIIITPVVPKFDYWGQGTLVTVSS VL: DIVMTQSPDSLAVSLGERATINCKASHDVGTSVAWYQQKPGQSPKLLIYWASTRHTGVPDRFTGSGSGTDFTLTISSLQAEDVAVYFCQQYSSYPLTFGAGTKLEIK
N

# check: koff of XENP32564 (bispecific antibody, part only; not given: anti-CD3 scFv-Fc arm, constant regions, V domains shown, not shown: another chain or arm of the molecule; a dimerising Fc or GST; small tags and cut ends) VH: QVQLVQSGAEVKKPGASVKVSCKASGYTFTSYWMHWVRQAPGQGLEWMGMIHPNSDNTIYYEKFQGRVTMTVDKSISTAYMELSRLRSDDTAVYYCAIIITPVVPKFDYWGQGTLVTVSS VL: DIVMTQSPDSLAVSLGERATINCKASHDVGTSLAWYQQKPGQSPKLLIYWASTRHTGVPDRFTGSGSGTDFTLTISSLQAEDVAVYFCQQYSSYPLTFGAGTKLEIK is greater than or equal to 0.0002 s⁻¹
N

API: above_or_equal(metric=koff, cutoff=0.0002 s⁻¹) for item XENP32558 (bispecific antibody, part only; not given: anti-CD3 scFv-Fc arm, constant regions, V domains shown, not shown: another chain or arm of the molecule; a dimerising Fc or GST; small tags and cut ends) VH: QVQLVQSGAEVKKPGASVKVSCKASGYTFTSYWMHWVRQAPGQGLEWMGMIHPNSDNTIYYEKFQGRVTMTVDKSISTAYMELSRLRSDDTAVYYCAIIITPVVPRFDYWGQGTLVTVSS VL: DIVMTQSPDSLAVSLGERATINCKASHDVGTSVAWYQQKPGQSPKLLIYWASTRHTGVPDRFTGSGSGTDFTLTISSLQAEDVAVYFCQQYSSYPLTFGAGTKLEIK
N
